# measured-on: Nuclear receptor subfamily 1 group I member 2 (Homo sapiens)
# Sequence (O75469 whole entry): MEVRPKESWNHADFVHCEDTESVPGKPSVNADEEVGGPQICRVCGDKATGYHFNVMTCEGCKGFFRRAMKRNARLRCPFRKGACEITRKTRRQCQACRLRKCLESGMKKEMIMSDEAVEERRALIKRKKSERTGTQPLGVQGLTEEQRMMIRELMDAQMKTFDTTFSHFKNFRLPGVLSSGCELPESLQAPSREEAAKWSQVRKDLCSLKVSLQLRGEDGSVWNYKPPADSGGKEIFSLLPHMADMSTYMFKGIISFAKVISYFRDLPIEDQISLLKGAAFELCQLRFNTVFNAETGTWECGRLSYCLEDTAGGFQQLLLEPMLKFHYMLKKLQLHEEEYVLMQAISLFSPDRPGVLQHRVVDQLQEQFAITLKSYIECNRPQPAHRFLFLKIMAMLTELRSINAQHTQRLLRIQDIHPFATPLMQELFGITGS
reported-property: IC50

# get_value(readout='IC50', item= CCCc1c(OCCCN2C(=O)Cc3cc(CC(=O)O)ccc32)ccc2c(C(F)(F)F)noc12 )
> 10 µM

* * *

# measured-on: Peroxisome proliferator-activated receptor alpha (Homo sapiens)
# Sequence (Q07869 whole entry): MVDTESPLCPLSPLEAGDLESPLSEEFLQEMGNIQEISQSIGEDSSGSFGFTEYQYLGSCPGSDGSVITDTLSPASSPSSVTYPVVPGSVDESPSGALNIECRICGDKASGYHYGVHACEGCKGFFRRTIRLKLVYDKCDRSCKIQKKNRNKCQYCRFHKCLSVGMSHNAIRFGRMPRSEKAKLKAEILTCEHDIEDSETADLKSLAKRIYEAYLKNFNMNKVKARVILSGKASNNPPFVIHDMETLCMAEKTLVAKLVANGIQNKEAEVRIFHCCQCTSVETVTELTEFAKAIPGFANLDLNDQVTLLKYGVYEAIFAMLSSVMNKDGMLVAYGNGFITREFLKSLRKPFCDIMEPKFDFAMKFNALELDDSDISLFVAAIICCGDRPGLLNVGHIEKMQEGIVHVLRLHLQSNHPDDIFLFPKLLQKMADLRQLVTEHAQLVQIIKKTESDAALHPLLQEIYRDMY
Task for the reader: assign each of the following compounds its reported pIC50.
Hey, just a heads up that pIC50 is the negative log base 10 of the concentration in molar.

# get_value(readout='pIC50', item= CCCc1c(OCCCN(C)c2cccc(CC(=O)O)c2)ccc2c(C(F)(F)F)noc12 )
5.82

Continue with CCCc1c(OCCCOc2ccc(CC(=O)O)cc2)ccc2c(C(F)(F)F)noc12
7.72

Continue with CCCc1c(OCCCN(CC)c2ccc(CC(=O)O)cc2)ccc2c(C(F)(F)F)noc12
5.59

Continue with CCCc1c(OCCCN(C)c2ccc(CC(=O)O)c(C)c2)ccc2c(C(F)(F)F)noc12
6.06

Continue with CCCc1c(OCCCn2ncc3cc(CC(=O)O)ccc32)ccc2c(C(F)(F)F)noc12
6.11

Continue with CCCc1c(OCCCN(C)c2ccc(CC(=O)O)cc2)ccc2c(C(F)(F)F)noc12
6.51

* * *

Protein target, amino acids: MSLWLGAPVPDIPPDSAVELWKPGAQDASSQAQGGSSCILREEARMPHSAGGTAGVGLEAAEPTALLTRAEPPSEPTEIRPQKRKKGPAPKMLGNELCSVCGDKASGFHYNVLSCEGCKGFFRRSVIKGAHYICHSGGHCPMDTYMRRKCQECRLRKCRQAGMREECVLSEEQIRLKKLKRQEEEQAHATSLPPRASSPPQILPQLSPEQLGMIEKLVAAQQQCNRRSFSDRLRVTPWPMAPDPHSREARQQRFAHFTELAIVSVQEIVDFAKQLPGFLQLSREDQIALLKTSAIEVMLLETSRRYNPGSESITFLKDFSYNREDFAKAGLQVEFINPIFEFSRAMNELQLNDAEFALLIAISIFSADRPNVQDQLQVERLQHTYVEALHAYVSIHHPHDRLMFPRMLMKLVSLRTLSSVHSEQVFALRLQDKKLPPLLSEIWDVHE
pIC50: −log10 of the molar value.
pIC50 vs 7: at or above is 1, below is -1.

For this molecule, is measured pIC50 7 or higher? CCCc1c(OCCCN(C)c2ncc(CC(=O)O)cn2)ccc2c(C(F)(F)F)noc12
1

Continue with CCCc1c(OCCCCc2ccc(CC(=O)O)cc2)ccc2c(C(F)(F)F)noc12
-1

* * *

Target protein (sequence): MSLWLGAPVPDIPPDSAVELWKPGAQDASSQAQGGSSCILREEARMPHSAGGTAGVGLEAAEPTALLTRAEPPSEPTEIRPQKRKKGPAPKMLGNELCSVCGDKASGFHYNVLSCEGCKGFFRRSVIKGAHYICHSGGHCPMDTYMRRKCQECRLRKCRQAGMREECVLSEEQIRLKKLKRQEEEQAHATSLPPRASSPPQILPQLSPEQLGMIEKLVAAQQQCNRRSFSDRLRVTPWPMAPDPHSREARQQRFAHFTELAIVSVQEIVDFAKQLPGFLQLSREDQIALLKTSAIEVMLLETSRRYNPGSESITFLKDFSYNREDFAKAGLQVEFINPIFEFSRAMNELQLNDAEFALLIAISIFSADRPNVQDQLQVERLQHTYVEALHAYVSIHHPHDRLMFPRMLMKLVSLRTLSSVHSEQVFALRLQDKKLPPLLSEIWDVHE
pEC50: −log10 of the molar value.
pEC50 vs 6: at or above is 1, below is -1.

For this molecule, is measured pEC50 6 or higher? CCCc1c(OCCCN2C(=O)Cc3cc(CC(=O)O)ccc32)ccc2c(C(F)(F)F)noc12
1

Continue with CCCc1c(OCCCNc2ccc(CC(=O)O)cc2)ccc2c(C(F)(F)F)noc12
-1

Continue with CCCc1c(OCCCN(C)c2cnc(CC(=O)O)cn2)ccc2c(C(F)(F)F)noc12
1

Continue with CCCc1c(OCCCN(C)c2cccc(CC(=O)O)c2)ccc2c(C(F)(F)F)noc12
-1

Continue with CCCc1c(OCCCN(C)c2ccc(CC(=O)O)c(Cl)c2)ccc2c(C(F)(F)F)noc12
1

Continue with CCCc1c(OCCCN(C)c2ccc(CC(=O)O)c(C(F)(F)F)c2)ccc2c(C(F)(F)F)noc12
-1

Continue with CCCc1c(OCCCn2ncc3cc(CC(=O)O)ccc32)ccc2c(C(F)(F)F)noc12
1

Continue with CCCc1c(OCCCN(C)c2ncc(CC(=O)O)cn2)ccc2c(C(F)(F)F)noc12
1

Continue with CCCc1c(OCCCn2ccc3cc(CC(=O)O)ccc32)ccc2c(C(F)(F)F)noc12
1

Continue with CCCc1c(OCCCN(C)c2ccc(CC(=O)O)cc2)ccc2c(C(F)(F)F)noc12
1

Continue with CCCc1c(OCCCSc2ccc(CC(=O)O)cc2Cl)ccc2c(C(F)(F)F)noc12
-1

Continue with CCCc1c(OCCCN(C)c2ccc(CC(=O)O)cn2)ccc2c(C(F)(F)F)noc12
-1

Continue with CCCc1c(OCCCN2C(=O)Cc3cc(C(=O)O)ccc32)ccc2c(C(F)(F)F)noc12
-1

Continue with CCCc1c(OCCCN(C)c2ccc(C(=O)O)cc2)ccc2c(C(F)(F)F)noc12
-1

Continue with CCCc1c(OCCCn2nnc3cc(CC(=O)O)ccc32)ccc2c(C(F)(F)F)noc12
-1

Continue with CCCc1c(OCCCn2ccc3cc(C(=O)O)ccc32)ccc2c(C(F)(F)F)noc12
-1

* * *

Task for the reader: assign each of the following molecules its reported half-life.
# experiment-description: in vivo
# experimental-setup: mouse
Give the quantity in h, number only.

# get_value(readout='half-life', item= CCCc1c(OCCCN2C(=O)Cc3cc(CC(=O)O)ccc32)ccc2c(C(F)(F)F)noc12 )
1

Continue with O=C(O)Cc1cccc(OCCCN(Cc2cccc(C(F)(F)F)c2Cl)CC(c2ccccc2)c2ccccc2)c1
3.4

Continue with CCCc1c(OCCCN(C)c2ncc(CC(=O)O)s2)ccc2c(C(F)(F)F)noc12
1.2

Continue with CCCc1c(OCCCn2ccc3cc(CC(=O)O)ccc32)ccc2c(C(F)(F)F)noc12
3.9

Continue with CCCc1c(OCCCN(C)c2cnc(CC(=O)O)cn2)ccc2c(C(F)(F)F)noc12
2.1

* * *

Task for the reader: assign each of the following molecules its reported Vd.
# experiment-description: in vivo
# experimental-setup: mouse, iv, 0.5 mg/kg
Give the quantity in L/kg, number only.

# get_value(readout='Vd', item= CCCc1c(OCCCN(C)c2ncc(CC(=O)O)s2)ccc2c(C(F)(F)F)noc12 )
1.2

Continue with O=C(O)Cc1cccc(OCCCN(Cc2cccc(C(F)(F)F)c2Cl)CC(c2ccccc2)c2ccccc2)c1
1.2

Continue with CCCc1c(OCCCN(C)c2cnc(CC(=O)O)cn2)ccc2c(C(F)(F)F)noc12
2.8

Continue with CCCc1c(OCCCN2C(=O)Cc3cc(CC(=O)O)ccc32)ccc2c(C(F)(F)F)noc12
2.9

Continue with CCCc1c(OCCCn2ccc3cc(CC(=O)O)ccc32)ccc2c(C(F)(F)F)noc12
2.7

* * *

pEC50 values recorded for Oxysterols receptor LXR-beta (Homo sapiens, UniProt P55055)
Hey, just a heads up that pEC50 is the negative log base 10 of the concentration in molar.

I'm curious: which pEC50 was measured for CCCc1c(OCCCn2ccc3cc(CCC(=O)O)ccc32)ccc2c(C(F)(F)F)noc12 tested on Oxysterols receptor LXR-beta (Homo sapiens, UniProt P55055)?
6.15

Continue with CCCc1c(OCCCN(C)c2cnc(CC(=O)O)cn2)ccc2c(C(F)(F)F)noc12
6.82

Continue with CCCc1c(OCCCN(C)c2ncc(CC(=O)O)cn2)ccc2c(C(F)(F)F)noc12
6.33

Continue with CCCc1c(OCCCN(C)c2ccc(CC(=O)O)c(Cl)c2)ccc2c(C(F)(F)F)noc12
6.91

Continue with CCCc1c(OCCCN(C)c2ncc(CC(=O)O)s2)ccc2c(C(F)(F)F)noc12
6.19

Continue with CCCc1c(OCCCN(C)c2ccc(CC(=O)O)c(C(F)(F)F)c2)ccc2c(C(F)(F)F)noc12
5.89

Continue with CCCc1c(OCCCN(C)c2ccc(CC(=O)O)cc2)ccc2c(C(F)(F)F)noc12
6.44

Continue with CCCc1c(OCCCn2nnc3cc(CC(=O)O)ccc32)ccc2c(C(F)(F)F)noc12
5.77

Continue with CCCc1c(OCCCNc2ccc(CC(=O)O)cc2)ccc2c(C(F)(F)F)noc12
5.11

Continue with CCCc1c(OCCCn2ncc3cc(CC(=O)O)ccc32)ccc2c(C(F)(F)F)noc12
6.24

Continue with CCCc1c(OCCCn2ccc3cc(CC(=O)O)ccc32)ccc2c(C(F)(F)F)noc12
6.35

Continue with CCCc1c(OCCCn2ccc3cc(C(=O)O)ccc32)ccc2c(C(F)(F)F)noc12
5.55

Continue with CCCc1c(OCCCN(C)c2ccc(CC(=O)O)c(C)c2)ccc2c(C(F)(F)F)noc12
6.52

Continue with CCCc1c(OCCCN2C(=O)Cc3cc(CC(=O)O)ccc32)ccc2c(C(F)(F)F)noc12
6.85

Continue with CCCc1c(OCCCOc2ccc(CC(=O)O)cc2Cl)ccc2c(C(F)(F)F)noc12
5.01

Continue with CCCc1c(OCCCN(C)c2cccc(CC(=O)O)c2)ccc2c(C(F)(F)F)noc12
5.46

Continue with CCCc1c(OCCCn2cnc3cc(CC(=O)O)ccc32)ccc2c(C(F)(F)F)noc12
5.07

Continue with CCCc1c(OCCCN2C(=O)Cc3cc(C(=O)O)ccc32)ccc2c(C(F)(F)F)noc12
5.36

Continue with CCCc1c(OCCCN(C)c2ccc(C(=O)O)cc2)ccc2c(C(F)(F)F)noc12
5.29
